# Assay overview: Hemolytic activity in human RBC assessed as hemolysis ratio at 0.0094 mM measured after 1 hr relative to control
# Type: toxicity, cell-based, Erythrocyte
# Particulars: red blood cells (erythrocytes)
Property label: hemolysis at 1 h, 9.4 µM (%)
Give bare numbers, in %.

Inquiry: Sample `C/C(Cn1cc(-c2csc(N)n2)c(=O)c2cc(F)c(Cl)cc21)=N\NC(N)=S` — what was its hemolysis at 1 h, 9.4 µM?
Reply text: 1.25

* * *

# Test system: Staphylococcus aureus
# Assay overview: Antibacterial activity against methicillin-resistant Staphylococcus aureus N315 by microbroth dilution method
# Assay type: functional
Class assignment keyed on MIC, ranges low end = under 500 µM, middle = from 500 µM up to 900 µM, high end = 900 µM and over

Check out these entries, answers already filled in.
Inquiry: Returns: class label. Input: `Cc1nc(-c2c[nH]c3c(F)cccc3c2=O)cs1`
Reply text: high end

Inquiry: What do you get for `CCn1cc(C(=O)O)c(=O)c2cc(F)c(N3CCNCC3)cc21` ?
Reply text: low end

Inquiry: What do you get for `CC(=O)Cn1cc(C(C)=O)c(=O)c2cc(F)c(Cl)cc21` ?
Reply text: middle

Inquiry: Another molecule: `CC(=O)Cn1cc(-c2csc(N)n2)c(=O)c2cc(F)ccc21`
Reply text: low end

Inquiry: Here is the next molecule: `C/C(Cn1cc(-c2csc(N)n2)c(=O)c2cccc(F)c21)=N\NC(N)=S`
Reply text: low end

---
Inquiry: Field: class (MIC) — entry: `Nc1nc(-c2c[nH]c3cc(Cl)c(F)cc3c2=O)cs1`
Reply text: high end

Inquiry: Same thing, different molecule: `C/C(Cn1cc(-c2csc(C)n2)c(=O)c2cc(F)c(Cl)cc21)=N\NC(N)=S`
Reply text: middle

Inquiry: Record: `CC(=O)Cn1cc(-c2csc(N)n2)c(=O)c2cccc(F)c21`
Reply text: low end

Inquiry: Input `CCOC(=O)c1cn(C/C(C)=N/NC(N)=S)c2cc(F)c(F)cc2c1=O`
Reply text: high end

Inquiry: Here is the next molecule: `C/C(Cn1cc(-c2csc(C)n2)c(=O)c2cc(F)c(F)cc21)=N\NC(N)=S`
Reply text: high end

Inquiry: Thanks! And `CCOC(=O)c1cn(C/C(C)=N/NC(N)=S)c2cc(Cl)c(F)cc2c1=O` ?
Reply text: middle

Inquiry: Cool, now `CC(=O)Cn1cc(-c2csc(C)n2)c(=O)c2cc(F)c(F)cc21`
Reply text: high end

Inquiry: Then what about the molecule `Nc1nc(-c2c[nH]c3cc(F)c(F)cc3c2=O)cs1` ?
Reply text: low end

Inquiry: Could you do the same for `Cc1nc(-c2c[nH]c3c(F)cc(F)cc3c2=O)cs1` , please?
Reply text: low end

Inquiry: How about this molecule: `CC(=O)Cn1cc(-c2csc(N)n2)c(=O)c2cc(F)cc(F)c21`
Reply text: low end
